# protocol details: 4-cycle repeat oral dose toxicology study (5 days on/2 days off)
# Assay type: in vivo, dog
# particulars: plasma, po, 2 mg/kg/day; at NOAEL, dog, female
# Experimental: Toxicology studies evaluating SRA141 were conducted in rat and dog following single and repeat oral dosing for up to 4 cycles (5 days on/2 days off per cycle). In addition, the potential genetic toxicity of SRA141 was evaluated in vitro.
readout: Cmax

INSERT INTO results (structure_as_smiles, readout, readout_value) VALUES
  ('CCOC(=O)C1=C(NN2CCN(CC(F)(F)F)CC2)O/C(=C\c2c[nH]c3ncccc23)C1=O', 'Cmax', '129 ng/mL');

----------
# System: MV-4-11
# protocol details: AML 3D culture, 5 days
# Format: cell-based
# particulars: MV-4-11 cell line
pIC50: −log10 of the molar value.
readout: pIC50

INSERT INTO results (compound, study_system, readout_value) VALUES
  ('N.N.[Cl][Pt][Cl] [Cisplatin]', 'MV-4-11', 6.21);

----------
# protocol details: 4-cycle repeat oral dose toxicology study (5 days on/2 days off)
# Assay type: in vivo, rat
# particulars: plasma, po, 100 mg/kg/day; at MTD/HNSTD, rat, male
readout: Cmax (ng/mL)

INSERT INTO results (structure_as_smiles, readout, readout_value) VALUES
  ('CCOC(=O)C1=C(NN2CCN(CC(F)(F)F)CC2)O/C(=C\c2c[nH]c3ncccc23)C1=O', 'Cmax', 390);

----------
# protocol details: 4-cycle repeat oral dose toxicology study (5 days on/2 days off)
# Type: in vivo, dog
# particulars: plasma, po, 10 mg/kg/day; at MTD/HNSTD, dog, male; read-out: AUC24 h
readout: AUC(0-t) (ng·h/mL)

INSERT INTO results (structure_as_smiles, readout_value) VALUES
  ('CCOC(=O)C1=C(NN2CCN(CC(F)(F)F)CC2)O/C(=C\c2c[nH]c3ncccc23)C1=O', 5660);

----------
# protocol details: In vitro plasma protein binding
# Format: in vitro ADME
# particulars: rat
readout: fraction unbound

INSERT INTO assay_data (compound, readout_value) VALUES
  ('CCOC(=O)C1=C(NN2CCN(CC(F)(F)F)CC2)O/C(=C\c2c[nH]c3ncccc23)C1=O [SRA141]', '< 0.1');

----------
# protocol details: 4-cycle repeat oral dose toxicology study (5 days on/2 days off)
# Type: in vivo, rat
# particulars: plasma, po, 50 mg/kg/day; at NOAEL, rat, male
# Procedure: Toxicology studies evaluating SRA141 were conducted in rat and dog following single and repeat oral dosing for up to 4 cycles (5 days on/2 days off per cycle). In addition, the potential genetic toxicity of SRA141 was evaluated in vitro.
readout: Cmax (ng/mL)

INSERT INTO assay_data (structure_as_smiles, readout_value) VALUES
  ('CCOC(=O)C1=C(NN2CCN(CC(F)(F)F)CC2)O/C(=C\c2c[nH]c3ncccc23)C1=O', 289);

----------
# Tested on: three AML cell lines (EOL-1, Molm-16 and MV-4-11) and three AML PDX models (AM5512, AM7440 and AM7577)
# protocol details: AML 3D cultures, summary over models
# Assay type: cell-based
# particulars: five of the six models; read-out: IC50 range
readout: IC50

INSERT INTO measurements (compound, readout, readout_value) VALUES
  ('CCOC(=O)C1=C(NN2CCN(CC(F)(F)F)CC2)O/C(=C\c2c[nH]c3ncccc23)C1=O [SRA141]', 'IC50', '150 to 1600 nM');

----------
# protocol details: Rat Colo-205 xenograft PK/PD, single dose, tumors at 12 hours
# Format: in vivo
# particulars: 75 mg/kg single oral dose, 12 hours
readout: SRA141 tumor concentration

INSERT INTO measurements (molecule, readout, readout_value) VALUES
  ('CCOC(=O)C1=C(NN2CCN(CC(F)(F)F)CC2)O/C(=C\c2c[nH]c3ncccc23)C1=O [SRA141]', 'SRA141 tumor concentration', '~0.5 µg/mL');

----------
# protocol details: Absolute oral bioavailability
# particulars: dog, in vivo, two proposed clinical drug product capsule presentations, read-out: absolute oral bioavailability (% F)
readout: bioavailability

INSERT INTO results (structure_as_smiles, readout, readout_value) VALUES
  ('CCOC(=O)C1=C(NN2CCN(CC(F)(F)F)CC2)O/C(=C\c2c[nH]c3ncccc23)C1=O', 'bioavailability', '41 to 62%');

----------
# protocol details: 4-cycle repeat oral dose toxicology study (5 days on/2 days off)
# Format: in vivo, rat
# particulars: plasma, po, 50 mg/kg/day; at NOAEL, rat, male; read-out: AUC24 h
readout: AUC(0-t) (µg·h/mL)

INSERT INTO assay_data (molecule, readout_value) VALUES
  ('CCOC(=O)C1=C(NN2CCN(CC(F)(F)F)CC2)O/C(=C\c2c[nH]c3ncccc23)C1=O [SRA141]', 2.87);

----------
# Test system: AML-blast progenitors
# protocol details: 3D growth in methylcellulose matrix, 14 days
# Type: cell-based
# particulars: with AML 810; read-out: Mean AML-blast progenitor IC50 (with AML 810)
pIC50: −log10 of the molar value.
Quick reference for pIC50 among some compounds
readout: pIC50

INSERT INTO assay_data (compound, study_system, readout, readout_value) VALUES
  ('CCOC(=O)C1=C(NN2CCN(CC(F)(F)F)CC2)O/C(=C\c2c[nH]c3ncccc23)C1=O [SRA141]', 'AML-blast progenitors', 'pIC50', 6.62),
  ('Nc1ccn([C@@H]2O[C@H](CO)[C@@H](O)[C@@H]2O)c(=O)n1 [Cytarabine, cytosine arabinoside, reference compound]', 'AML-blast progenitors', 'pIC50', 8.30);

----------
# Tested on: normal human myeloid progenitors (normal bone marrow)
# protocol details: 3D growth in methylcellulose matrix, 14 days
# Type: cell-based
# particulars: Normal bone marrow 111, read-out: IC50
pIC50: −log10 of the molar value.
readout: pIC50

INSERT INTO assay_data (compound, study_system, readout, readout_value) VALUES
  ('CCOC(=O)C1=C(NN2CCN(CC(F)(F)F)CC2)O/C(=C\c2c[nH]c3ncccc23)C1=O', 'normal human myeloid progenitors (normal bone marrow)', 'pIC50', 6.78),
  ('Nc1ccn([C@@H]2O[C@H](CO)[C@@H](O)[C@@H]2O)c(=O)n1 [Cytarabine, cytosine arabinoside, reference compound]', 'normal human myeloid progenitors (normal bone marrow)', 'pIC50', 8.32);

----------
# protocol details: 4-cycle repeat oral dose toxicology study (5 days on/2 days off)
# Type: in vivo, dog
# particulars: dog, in vivo, oral
readout: NOAEL at 4 cycles (5 days on/2 days off) (mg/kg/day)

INSERT INTO assay_data (structure_as_smiles, readout, unit_name, readout_value) VALUES
  ('CCOC(=O)C1=C(NN2CCN(CC(F)(F)F)CC2)O/C(=C\c2c[nH]c3ncccc23)C1=O', 'NOAEL at 4 cycles (5 days on/2 days off)', 'mg/kg/day', 2);

----------
# System: tumoral phospho-MCM2 (pMCM2)
# protocol details: Mouse SW620 colorectal xenograft PK/PD assessment
# Format: in vivo
# particulars: 30 mg/kg single oral dose
readout: Maximal SRA141 plasma concentration

INSERT INTO measurements (structure_as_smiles, readout_value) VALUES
  ('CCOC(=O)C1=C(NN2CCN(CC(F)(F)F)CC2)O/C(=C\c2c[nH]c3ncccc23)C1=O', '~1 µg/mL');

----------
# protocol details: Rat Colo-205 xenograft PK/PD, single dose, tumors at 12 hours
# Assay type: in vivo
# particulars: female, Rowett nude, rat, tumor, oral; single dose, tumors collected 12 hours later; read-out: tumor SRA141 concentration
readout: concentration at 12 h

INSERT INTO measurements (structure_as_smiles, readout, readout_value) VALUES
  ('CCOC(=O)C1=C(NN2CCN(CC(F)(F)F)CC2)O/C(=C\c2c[nH]c3ncccc23)C1=O', 'concentration at 12 h', '~1200 nM');

----------
# protocol details: Absolute oral bioavailability
# particulars: dog, in vivo, free base suspension, fasted, range given for mouse, rat and dog together, read-out: absolute oral bioavailability (% F)
readout: bioavailability

INSERT INTO results (compound, readout_value) VALUES
  ('CCOC(=O)C1=C(NN2CCN(CC(F)(F)F)CC2)O/C(=C\c2c[nH]c3ncccc23)C1=O [SRA141]', '31 to 54%');

----------
# protocol details: 4-cycle repeat oral dose toxicology study (5 days on/2 days off)
# Type: in vivo, rat
# particulars: rat, in vivo, oral
readout: NOAEL at 4 cycles (5 days on/2 days off) (mg/kg/day)

INSERT INTO measurements (structure_as_smiles, readout, readout_value) VALUES
  ('CCOC(=O)C1=C(NN2CCN(CC(F)(F)F)CC2)O/C(=C\c2c[nH]c3ncccc23)C1=O', 'NOAEL at 4 cycles (5 days on/2 days off)', 50);
